Species: Rattus norvegicus
Protocol Details: Open TG-GATES - Regimen: Daily Repeat
Format: toxicity, organism-based, Sprague-Dawley
Parameters: regimen Daily Repeat, gender Male, age 6 weeks
Study Conditions: in vivo, po, 0 mg/kg, 72 h, tissue Plasma, route gavage, dose level Control, time 3 day
# PL values compiled below
Readout Name: PL (mg/dL)

molecule=CC(C)NNC(=O)c1ccncc1 value_observed=159.6
molecule=Nc1c2c(nc3ccccc13)CCCC2 value_observed=158.4
molecule=COC(=O)C1=C(C)NC(C)=C(C(=O)OC)C1c1ccccc1[N+](=O)[O-] value_observed=162
molecule=Brc1ccccc1 value_observed=142.6
molecule="CN1C(=O)CCS(=O)(=O)C1c1ccc(Cl)cc1 (stereo unspecified)" value_observed=148.4
molecule=CCOc1ccc(NC(C)=O)cc1 value_observed=171

###

Organism: Rattus norvegicus
Protocol Details: Open TG-GATES - Regimen: Daily Repeat
Format: toxicity, organism-based, Sprague-Dawley
Parameters: regimen Daily Repeat, gender Male, age 6 weeks
Study Conditions: in vivo, po, 100 mg/kg, […], tissue Blood, route gavage, dose level Low, time 28 day
Readout Name: Mono (%)

smiles_code=CNC(=C[N+](=O)[O-])NCCSCc1ccc(CN(C)C)o1 unit_of_measurement=% value_observed=1.8
smiles_code=CCOc1ccc(NC(C)=O)cc1 unit_of_measurement=% value_observed=2.4
smiles_code=Cc1nnc2n1-c1ccc(Cl)cc1C(c1ccccc1Cl)=NC2 unit_of_measurement=% value_observed=1.6
smiles_code=COC(=O)C1=C(C)NC(C)=C(C(=O)OC)C1c1ccccc1[N+](=O)[O-] unit_of_measurement=% value_observed=3.4
smiles_code=CN/C(=N/CCSCc1nc[nH]c1C)NC#N unit_of_measurement=% value_observed=2.8
smiles_code=O=C(OC[C@H]1O[C@@H](OC(=O)c2cc(O)c(O)c(OC(=O)c3cc(O)c(O)c(O)c3)c2)[C@H](OC(=O)c2cc(O)c(O)c(OC(=O)c3cc(O)c(O)c(O)c3)c2)[C@@H](OC(=O)c2cc(O)c(O)c(OC(=O)c3cc(O)c(O)c(O)c3)c2)[C@@H]1OC(=O)c1cc(O)c(O)c(OC(=O)c2cc(O)c(O)c(O)c2)c1)c1cc(O)c(O)c(OC(=O)c2cc(O)c(O)c(O)c2)c1 unit_of_measurement=% value_observed=5.8

###

Listed compounds paired with reported WBC
Organism: Rattus norvegicus
Protocol Details: Open TG-GATES - Regimen: Daily Repeat
Type: toxicity, organism-based, Sprague-Dawley
Set-up: regimen Daily Repeat, gender Male, age 6 weeks
Study Conditions: in vivo, po, 100 mg/kg, […], tissue Blood, route gavage, dose level Low, time 14 day
Readout Name: WBC (x10_2/uL)

smiles_code=CN/C(=N/CCSCc1nc[nH]c1C)NC#N readout_name=WBC unit_of_measurement=x10_2/uL value_observed=93.7
smiles_code=O=C(OC[C@H]1O[C@@H](OC(=O)c2cc(O)c(O)c(OC(=O)c3cc(O)c(O)c(O)c3)c2)[C@H](OC(=O)c2cc(O)c(O)c(OC(=O)c3cc(O)c(O)c(O)c3)c2)[C@@H](OC(=O)c2cc(O)c(O)c(OC(=O)c3cc(O)c(O)c(O)c3)c2)[C@@H]1OC(=O)c1cc(O)c(O)c(OC(=O)c2cc(O)c(O)c(O)c2)c1)c1cc(O)c(O)c(OC(=O)c2cc(O)c(O)c(O)c2)c1 readout_name=WBC unit_of_measurement=x10_2/uL value_observed=136
smiles_code=COC(=O)C1=C(C)NC(C)=C(C(=O)OC)C1c1ccccc1[N+](=O)[O-] readout_name=WBC unit_of_measurement=x10_2/uL value_observed=110.8
smiles_code=CNC(=C[N+](=O)[O-])NCCSCc1ccc(CN(C)C)o1 readout_name=WBC unit_of_measurement=x10_2/uL value_observed=109.6
smiles_code=CCOc1ccc(NC(C)=O)cc1 readout_name=WBC unit_of_measurement=x10_2/uL value_observed=112.5
smiles_code=Cc1nnc2n1-c1ccc(Cl)cc1C(c1ccccc1Cl)=NC2 readout_name=WBC unit_of_measurement=x10_2/uL value_observed=98

###

Organism: Rattus norvegicus
Protocol Details: Open TG-GATES - Regimen: Single
Assay type: toxicity, organism-based, Sprague-Dawley
Set-up: regimen Single, gender Male, age 6 weeks
Study Conditions: in vivo, po, 0 mg/kg, 9 h, tissue Plasma, route gavage, dose level Control
Catalogue of compounds with associated TG
Readout Name: TG (mg/dL)

compound=Nc1c2c(nc3ccccc13)CCCC2 unit_of_measurement=mg/dL value_observed=60.8
compound=Cc1nnc2n1-c1ccc(Cl)cc1C(c1ccccc1Cl)=NC2 unit_of_measurement=mg/dL value_observed=40.8
compound=CNC(=C[N+](=O)[O-])NCCSCc1ccc(CN(C)C)o1 unit_of_measurement=mg/dL value_observed=28.8
compound="CN1C(=O)CCS(=O)(=O)C1c1ccc(Cl)cc1 (stereo not drawn)" unit_of_measurement=mg/dL value_observed=52.6
compound=O=C(OC[C@H]1O[C@@H](OC(=O)c2cc(O)c(O)c(OC(=O)c3cc(O)c(O)c(O)c3)c2)[C@H](OC(=O)c2cc(O)c(O)c(OC(=O)c3cc(O)c(O)c(O)c3)c2)[C@@H](OC(=O)c2cc(O)c(O)c(OC(=O)c3cc(O)c(O)c(O)c3)c2)[C@@H]1OC(=O)c1cc(O)c(O)c(OC(=O)c2cc(O)c(O)c(O)c2)c1)c1cc(O)c(O)c(OC(=O)c2cc(O)c(O)c(O)c2)c1 unit_of_measurement=mg/dL value_observed=35.2
compound=COC(=O)C1=C(C)NC(C)=C(C(=O)OC)C1c1ccccc1[N+](=O)[O-] unit_of_measurement=mg/dL value_observed=18.4
compound=CCCc1cc(=O)[nH]c(=S)[nH]1 unit_of_measurement=mg/dL value_observed=35.6
compound="CN(C)CCC(c1ccc(Cl)cc1)c1ccccn1 (stereo not drawn)" unit_of_measurement=mg/dL value_observed=39.4

###

Organism: Rattus norvegicus
Protocol Details: Open TG-GATES - Regimen: Single
Format: toxicity, organism-based, Sprague-Dawley
Parameters: regimen Single, gender Male, age 6 weeks
Study Conditions: in vivo, po, 100 mg/kg, 9 h, tissue Plasma, route gavage, dose level Low
Overview of recorded CRE for various compounds
Readout Name: CRE (mg/dL)

smiles_code=CNC(=C[N+](=O)[O-])NCCSCc1ccc(CN(C)C)o1 readout_name=CRE unit_of_measurement=mg/dL value_observed=0.3
smiles_code=Cc1nnc2n1-c1ccc(Cl)cc1C(c1ccccc1Cl)=NC2 readout_name=CRE unit_of_measurement=mg/dL value_observed=0.1
smiles_code=CN/C(=N/CCSCc1nc[nH]c1C)NC#N readout_name=CRE unit_of_measurement=mg/dL value_observed=0.3
smiles_code=COC(=O)C1=C(C)NC(C)=C(C(=O)OC)C1c1ccccc1[N+](=O)[O-] readout_name=CRE unit_of_measurement=mg/dL value_observed=0.2
smiles_code=O=C(OC[C@H]1O[C@@H](OC(=O)c2cc(O)c(O)c(OC(=O)c3cc(O)c(O)c(O)c3)c2)[C@H](OC(=O)c2cc(O)c(O)c(OC(=O)c3cc(O)c(O)c(O)c3)c2)[C@@H](OC(=O)c2cc(O)c(O)c(OC(=O)c3cc(O)c(O)c(O)c3)c2)[C@@H]1OC(=O)c1cc(O)c(O)c(OC(=O)c2cc(O)c(O)c(O)c2)c1)c1cc(O)c(O)c(OC(=O)c2cc(O)c(O)c(O)c2)c1 readout_name=CRE unit_of_measurement=mg/dL value_observed=0.4

###

Species on record: Rattus norvegicus
Protocol Details: Open TG-GATES - Regimen: Daily Repeat
Type: toxicity, organism-based, Sprague-Dawley
Set-up: regimen Daily Repeat, gender Male, age 6 weeks
Study Conditions: in vivo, po, 0 mg/kg, […], tissue Plasma, route gavage, dose level Control, time 28 day
Readout Name: TBIL (mg/dL)

compound="CCOc1ccc(NC(C)=O)cc1 [PHENACETIN]" readout_name=TBIL value_observed=0.048
compound="CCCc1cc(=O)[nH]c(=S)[nH]1 [PROPYLTHIOURACIL]" readout_name=TBIL value_observed=0.2
compound="CC(C)NNC(=O)c1ccncc1 [IPRONIAZID]" readout_name=TBIL value_observed=0.014
compound="Cc1nnc2n1-c1ccc(Cl)cc1C(c1ccccc1Cl)=NC2 [TRIAZOLAM]" readout_name=TBIL value_observed=0.056
compound="CNC(=C[N+](=O)[O-])NCCSCc1ccc(CN(C)C)o1 [RANITIDINE]" readout_name=TBIL value_observed=0.1
compound="COC(=O)C1=C(C)NC(C)=C(C(=O)OC)C1c1ccccc1[N+](=O)[O-] [NIFEDIPINE]" readout_name=TBIL value_observed=0.026
compound="Brc1ccccc1 [BROMOBENZENE]" readout_name=TBIL value_observed=0.036

###

Item-by-item account of KIDNEY_R
Organism: Rattus norvegicus
Protocol Details: Open TG-GATES - Regimen: Daily Repeat
Type: toxicity, organism-based, Sprague-Dawley
Set-up: regimen Daily Repeat, gender Male, age 6 weeks
Study Conditions: in vivo, po, 300 mg/kg, […], tissue Kidney, route gavage, dose level Middle, time 7 day
Readout Name: KIDNEY_R (g)

molecule="CN/C(=N/CCSCc1nc[nH]c1C)NC#N [CIMETIDINE]" readout_name=KIDNEY_R value_observed=1.1
molecule="COC(=O)C1=C(C)NC(C)=C(C(=O)OC)C1c1ccccc1[N+](=O)[O-] [NIFEDIPINE]" readout_name=KIDNEY_R value_observed=1
molecule="CCOc1ccc(NC(C)=O)cc1 [PHENACETIN]" readout_name=KIDNEY_R value_observed=1.1
molecule="CNC(=C[N+](=O)[O-])NCCSCc1ccc(CN(C)C)o1 [RANITIDINE]" readout_name=KIDNEY_R value_observed=1.1
molecule="Cc1nnc2n1-c1ccc(Cl)cc1C(c1ccccc1Cl)=NC2 [TRIAZOLAM]" readout_name=KIDNEY_R value_observed=1.1
molecule="O=C(OC[C@H]1O[C@@H](OC(=O)c2cc(O)c(O)c(OC(=O)c3cc(O)c(O)c(O)c3)c2)[C@H](OC(=O)c2cc(O)c(O)c(OC(=O)c3cc(O)c(O)c(O)c3)c2)[C@@H](OC(=O)c2cc(O)c(O)c(OC(=O)c3cc(O)c(O)c(O)c3)c2)[C@@H]1OC(=O)c1cc(O)c(O)c(OC(=O)c2cc(O)c(O)c(O)c2)c1)c1cc(O)c(O)c(OC(=O)c2cc(O)c(O)c(O)c2)c1 [TANNIC ACID]" readout_name=KIDNEY_R value_observed=1
